Target: CRTH2 (KB8 cells) (Homo sapiens)
Construct: host or cells: KB8 cells (human CRTH2 expression cell)
Assay: CRTH2 antagonist test (PGD2-induced intracellular calcium ion concentration increase in KB8 cells)
Type: cell-based
Conditions: PGD2 final concentration 100 nM, Fluo-4-AM fluorescence, read-out: antagonist activity (IC50 value, inhibition of calcium ion concentration increase)
pIC50: −log10 of the molar value.
pIC50 for assorted compounds

[
  {
    "smiles_code": "O=C(O)Cc1cnc(C(=O)c2ccc(NC(=O)c3ccc4nccnc4c3)cc2)c2ccccc12",
    "pIC50": "6.00 to 6.30"
  },
  {
    "smiles_code": "O=C(O)Cc1cnc(C(=O)c2ccc(NC(=O)COc3ccc(Cl)c(Cl)c3)cc2)c2ccccc12",
    "pIC50": "> 7.30"
  },
  {
    "smiles_code": "O=C(O)Cc1cnc(Cc2ccc(C(=O)NCCc3ccccc3)cc2)c2ccccc12",
    "pIC50": "6.30 to 7.30"
  },
  {
    "smiles_code": "O=C(O)Cc1cnc(C(=O)c2ccc(NC(=O)c3cc(Cl)cc(Cl)c3)cc2)c2ccccc12",
    "pIC50": "> 7.30"
  },
  {
    "smiles_code": "O=C(O)Cc1cnc(Cc2ccc(C(=O)NCc3ccc(Cl)cc3)cc2)c2ccccc12",
    "pIC50": "6.30 to 7.30"
  }
]

Using the record for Cc1cc(F)ccc1C(=O)Nc1ccc(C(=O)c2ncc(CC(=O)O)c3ccccc23)cc1 , report its pIC50. 6.30 to 7.30

Form field: reported pIC50 of O=C(O)Cc1cnc(C(=O)c2ccc(NC(=O)c3cc4ccccc4[nH]3)cc2)c2ccccc12 > 7.30

Value lookup for pIC50; key = CCCOc1ccc(CCNC(=O)c2ccc(Cc3ncc(CC(=O)O)c4ccccc34)cc2)cc1 > 7.30

Could you tell me which pIC50 is on file for O=C(O)Cc1cnc(C(=O)c2ccc(NC(=O)c3ccc([N+](=O)[O-])cc3)cc2)c2ccccc12 ? > 7.30

Need pIC50 of O=C(O)Cc1cnc(Cc2ccc(C(=O)NCCc3cc(F)cc(C(F)(F)F)c3)cc2)c2ccccc12 , thanks. 6.30 to 7.30

// lookup pIC50 for O=C(O)Cc1cnc(C(=O)c2ccc(COCCc3ccc(Cl)cc3)cc2)c2ccccc12 6.30 to 7.30

So what does the record say about pIC50 for Cc1cccc(C(=O)Nc2ccc(C(=O)c3ncc(CC(=O)O)c4ccccc34)cc2)c1 ? > 7.30

For the compound O=C(O)Cc1cnc(C(=O)c2ccc(NC(=O)c3ccc(F)c(F)c3F)cc2)c2ccccc12 , what pIC50 is on record? 6.30 to 7.30

----------
Measured IC50 by item
Molecular target: CRTH2 (KB8 cells) (Homo sapiens, UniProt Q9Y5Y4)
Construct: host or cells: KB8 cells (human CRTH2 expression cell)
Sequence (Q9Y5Y4 1-395): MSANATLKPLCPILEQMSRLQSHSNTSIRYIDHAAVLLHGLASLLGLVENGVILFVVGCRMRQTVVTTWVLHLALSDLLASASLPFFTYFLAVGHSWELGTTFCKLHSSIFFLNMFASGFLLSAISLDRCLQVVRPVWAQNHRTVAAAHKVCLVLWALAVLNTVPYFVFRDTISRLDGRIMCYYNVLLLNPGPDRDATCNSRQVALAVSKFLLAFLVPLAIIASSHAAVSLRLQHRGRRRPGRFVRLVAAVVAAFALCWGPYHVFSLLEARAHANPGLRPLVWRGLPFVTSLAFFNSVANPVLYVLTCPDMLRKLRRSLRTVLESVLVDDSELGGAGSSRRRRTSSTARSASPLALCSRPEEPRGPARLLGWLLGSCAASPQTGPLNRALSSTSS
Experiment: CRTH2 antagonist test (PGD2-induced intracellular calcium ion concentration increase in KB8 cells)
Format: cell-based
Details: PGD2 final concentration 100 nM, Fluo-4-AM fluorescence, read-out: antagonist activity (IC50 value, inhibition of calcium ion concentration increase)

[
  {
    "compound": "O=C(O)Cc1cnc(C(=O)c2ccc(NC(=O)c3cc(Cl)cc(Cl)c3Cl)cc2)c2ccccc12 [Example 45]",
    "tested_target": "CRTH2 (KB8 cells) (Homo sapiens, UniProt Q9Y5Y4)",
    "IC50": "50 to 500 nM"
  },
  {
    "compound": "O=C(O)Cc1cnc(C(=O)c2ccc(NC(=O)/C=C/c3ccc(F)cc3)cc2)c2ccccc12 [Example 83]",
    "tested_target": "CRTH2 (KB8 cells) (Homo sapiens, UniProt Q9Y5Y4)",
    "IC50": "< 50 nM"
  },
  {
    "compound": "O=C(O)Cc1cnc(C(=O)c2ccc(NC(=O)c3cc4c([nH]3)CCCC4)cc2)c2ccccc12 [Example 94]",
    "tested_target": "CRTH2 (KB8 cells) (Homo sapiens, UniProt Q9Y5Y4)",
    "IC50": "< 50 nM"
  },
  {
    "compound": "O=C(O)Cc1cnc(C(=O)c2ccc(NC(=O)c3ccc(Cl)cc3)cc2)c2ccccc12 [Example 29]",
    "tested_target": "CRTH2 (KB8 cells) (Homo sapiens, UniProt Q9Y5Y4)",
    "IC50": "< 50 nM"
  }
]

Any idea what IC50 was measured for O=C(O)Cc1cnc(Cc2ccc(C(=O)NCCc3ccc(Cl)cc3)cc2)c2ccccc12 [Example 153] ? < 50 nM

Given the entry O=C(O)Cc1cnc(C(=O)c2ccc(NC(=O)CCC3CCCCC3)cc2)c2ccccc12 [Example 77] , report its measured IC50. < 50 nM

FYI, the data here is from patent US8461329B2.
